Below, each entry is listed alongside its reported protein stability index.
B1: PKD2L1 (parent)
chain: SGPEAARAGGWVSGEEFYMLTRRV

# Variants of: B1
# Assay Protocol: protein stability index of a GFP-peptide fusion (GPS, HEK-293T) (PSI 1-6); higher = more stable;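 further: lentivirally expressed fusions sorted by FACS into six bins by GFP to DsRed ratio, PSI derived from sequencing read proportions per bin multiplied by bin number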
# Stated Conditions: c terminus: a fixed tail appended
The answer should be a number; do not append a unit.

Examples with their reported protein stability index follow.
SGPEAARAGGWVSGEEFYMLTRRQ : 3.01
SGPEAARAGGWMSGEEFYMLTRRV : 2.25
SGPEAARAGGWVSGEEFYMLYRRV : 1.6

Data request: What does the data say about its protein stability index? Entry: SPPEAARAGGWVSGEEFYMLTRRV
Data returned: 2.08

Data request: Try SGPEAARAGGWVSGMEFYMLTRRV next.
Data returned: 1.48

Data request: Please give the result for SGPVAARAGGWVSGEEFYMLTRRV too.
Data returned: 1.56
